experiment: Volume of distribution at steady state in ICR mouse at 1 mg/kg, iv; format: ADME, organism-based; parameters: dose 1 mg/kg, route intravenous; settings: in vivo, read-out: Vdss
reported metric: Vd (L/kg)
Form entry: value (L/kg) — number only.

*Q* Write down Vd measured for item Cc1cc(SC(Cc2ccccc2)c2sc(-c3ccc(C(F)(F)F)cc3)nc2C)ccc1OCC(=O)O (stereo unspecified)
*A* 0.131

---

target: Peroxisome proliferator-activated receptor delta (Homo sapiens, UniProt Q03181); experiment: Transactivation activity at human PPARdelta expressed in african green monkey CV1 cells after 24 hrs by luciferase reporter gene assay; type: cell-based, CV-1
Sequence (Q03181 whole entry): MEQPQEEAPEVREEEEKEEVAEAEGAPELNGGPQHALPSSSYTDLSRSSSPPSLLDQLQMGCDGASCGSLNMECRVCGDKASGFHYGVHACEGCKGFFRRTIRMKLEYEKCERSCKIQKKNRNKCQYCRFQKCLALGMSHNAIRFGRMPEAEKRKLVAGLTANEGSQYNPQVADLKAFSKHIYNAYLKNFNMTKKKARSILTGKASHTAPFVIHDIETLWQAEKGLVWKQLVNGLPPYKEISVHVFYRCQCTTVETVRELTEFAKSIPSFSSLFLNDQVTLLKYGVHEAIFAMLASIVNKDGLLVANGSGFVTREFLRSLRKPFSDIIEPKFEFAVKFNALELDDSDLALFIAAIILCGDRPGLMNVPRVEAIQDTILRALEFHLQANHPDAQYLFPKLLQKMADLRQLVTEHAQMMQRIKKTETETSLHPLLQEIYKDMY
reported metric: pEC50
Scale: negative log10 of molar concentration, which is what pEC50 denotes.

Cc1cc(SC(Cc2c(F)c(F)c(F)c(F)c2F)c2sc(-c3ccc(C(F)(F)F)cc3)nc2C)ccc1OCC(=O)O (centres undefined) :: 8.09

*Q* Write down pEC50 measured for item Cc1cc(SC(C)c2sc(-c3ccc(C(F)(F)F)cc3)nc2C)ccc1OCC(=O)O (centres undefined)
*A* 8.74

*Q* Write down pEC50 measured for item Cc1cc(SC(Cc2c(F)cccc2C(F)(F)F)c2sc(-c3ccc(C(F)(F)F)cc3)nc2C)ccc1OCC(=O)O (centres undefined)
*A* 8.92

*Q* Write down pEC50 measured for item Cc1cc(SC(Cc2ccc(C(F)(F)F)cc2)c2sc(-c3ccc(C(F)(F)F)cc3)nc2C)ccc1OCC(=O)O (centres undefined)
*A* 8.03

// data source = ChEMBL document CHEMBL2034891
